- PROCEDURE_SUMMARY: Volume of distribution in rat at 5 mg/kg
- Assay type: ADME, organism-based
- Parameters: dose 5 mg/kg
- CONDITION_LABEL: in vivo, read-out: Vss
MEASURED_ENDPOINT: Vd

Note down Vd recorded for COC(=O)NC(C)C#Cc1cnc(Oc2ccc(OC(C)C)cc2)s1 (stereo unspecified)
5 L/kg

====

- PROCEDURE_SUMMARY: Half life in rat at 5 mg/kg, po
- Format: ADME, organism-based
- Set-up: dose 5 mg/kg, route oral
- CONDITION_LABEL: in vivo
MEASURED_ENDPOINT: half-life

Note down half-life recorded for COC(=O)NC(C)C#Cc1cnc(Oc2ccc(OC(C)C)cc2)s1 (stereo unspecified)
> 12 h

====

- TEST_TARGET: Acetyl-CoA carboxylase 1 (Homo sapiens)
- PROCEDURE_SUMMARY: Inhibition of human recombinant ACC1 expressed in HEK293 cells
pIC50: −log10 of the molar value.
For each of the compounds below, state its pIC50.

Please review the entries below; each comes with its answer.
> print(dat)
                                   compound                              test.target   value
1  COC(=O)NC(C)C#Cc1cnc(Oc2ccc(OC(C)C)cc2)s1 (stereo not given)  Acetyl-CoA carboxylase 1 (Homo sapiens)  < 4.52
2  CC(=O)NC(C)C#Cc1ccc(Oc2ccc(OC(C)C)cc2)cc1 (stereo not given)  Acetyl-CoA carboxylase 1 (Homo sapiens)    7.54
3  CC(=O)NC(C)C#Cc1cnc(Sc2ccc(OC(C)C)cc2)s1 (stereo not given)  Acetyl-CoA carboxylase 1 (Homo sapiens)  < 4.52
4  CC(=O)NC(C)C#Cc1cnc(Oc2ccc(C(C)C)cc2)s1 (stereo not given)  Acetyl-CoA carboxylase 1 (Homo sapiens)    5.90
5  CC(C#Cc1cnc(Oc2ccc(Oc3ccccc3)cc2)s1)N(O)C(N)=O (stereo not given)  Acetyl-CoA carboxylase 1 (Homo sapiens)    6.00

Working through the 7 compounds below one at a time, give pIC50 for each.
1. COC(=O)N[C@@H](C)C#Cc1cnc(Oc2ccc(OC(C)C)cc2)s1
2. CC(=O)NC(C)C#Cc1cnc(Oc2ccc(Oc3ccccc3)cc2)s1 (stereo not given)
3. CC(=O)NC(C)C#Cc1cnc(Oc2ccc(NC(C)C)cc2)s1 (stereo not given)
4. CC(=O)NC(C)C#Cc1cnc(Oc2ccc(SC(C)C)cc2)s1 (stereo not given)
5. COC(=O)N[C@H](C)C#Cc1cnc(Oc2ccc(OC(C)C)cc2)s1
6. CC(=O)NC(C)C#Cc1cnc(Oc2ccc(OC(C)C)nc2)s1 (stereo not given)
7. CNC(=O)NC(C)C#Cc1cnc(Oc2ccc(OC(C)C)cc2)s1 (stereo not given)

1: < 4.52; 2: 6.59; 3: < 4.52; 4: 6.43; 5: < 4.52; 6: 6.41; 7: < 4.52

Working through the 7 compounds below one at a time, give pIC50 for each.
1. O=C(c1c2ccccc2cc2ccccc12)N1CCC(N2CCC[C@@H](C(=O)N3CCOCC3)C2)CC1
2. CC(=O)NC(C)C#Cc1cnc(Oc2ccc(OC(C)C)cc2)s1 (stereo not given)
3. CC(O)C#Cc1cnc(Oc2ccc(Oc3ccccc3)cc2)s1 (stereo not given)
4. CC(=O)NC(C#Cc1cnc(Oc2ccc(OC(C)C)cc2)s1)C1CC1 (stereo not given)
5. CC(C#Cc1cnc(Oc2ccc(Oc3ccccc3)cc2)s1)NC(N)=O (stereo not given)
6. CC(=O)NCC#Cc1cnc(Oc2ccc(OC(C)C)cc2)s1
7. CC(N)C#Cc1cnc(Oc2ccc(Oc3ccccc3)cc2)s1 (stereo not given)

[6.39, "< 4.52", "< 4.52", "< 4.52", "< 4.52", "< 4.52", "< 4.52"]

Note down pIC50 recorded for CC(=O)NC(C)C#Cc1csc(Oc2ccc(OC(C)C)cc2)n1 (stereo not given)
< 4.52
